Tested on: LOX IMVI melanoma
Assay: NCI tumour cell line growth inhibition, 48 h
Listed below: TGI values for each entry.
Kindly answer with a numeric value in µM, unit omitted.

Sample records with TGI:
- molecule: "C[C@]12CC[C@H](O)CC1=CC[C@@H]1[C@@H]2CC[C@]2(C)C(=N/O)/C(=C/c3ccc([N+](=O)[O-])cc3)C[C@@H]12"
  system-name: "LOX IMVI melanoma"
  unit-spec: "µM"
  TGI: 21.5
- molecule: "CC[C@]12C=CCN3CC[C@@]4(c5cc(Br)c(OC)cc5N(C)[C@H]4[C@@](O)(C(=O)N[C@@H](Cc4ccc(O)cc4)C(=O)OC)[C@@H]1O)[C@@H]32"
  system-name: "LOX IMVI melanoma"
  unit-spec: "µM"
  TGI: 34.8
- molecule: "O=C(c1cc2c(c3ccccc13)NCCN=C2C(F)(F)F)C(F)(F)F"
  system-name: "LOX IMVI melanoma"
  unit-spec: "µM"
  TGI: 38.4
- molecule: "CCCCCCCC(=O)OCC1OC(OC)C(NC(=O)N(CCCl)N=O)C(O)C1O (centres undefined)"
  system-name: "LOX IMVI melanoma"
  unit-spec: "µM"
  TGI: 23.8
- molecule: "Clc1cc(Br)c2c3c(c(Br)cc(Cl)c13)C(Br)=C2Br"
  system-name: "LOX IMVI melanoma"
  unit-spec: "µM"
  TGI: 32.2

Prompt: Query the reported TGI for LOX IMVI melanoma; item: CC(=O)OCCOc1cc2c([nH]c3ccccc32)c(C)c2cccc1-2
Response: 6.57

Prompt: Field: TGI (LOX IMVI melanoma). Entry: Nc1nc(Nc2ccccc2)sc1C(=O)c1cccs1
Response: 27.3

---

Tested on: SF-295 CNS
Assay: NCI tumour cell line growth inhibition, 48 h
measure: GI50

- molecule: "O=C(CCC(C(=O)c1ccccc1)c1ccccc1)c1ccccc1 (stereo not drawn)"
  measure: "GI50"
  observed: "6.83 µM"
- molecule: "O=C1OC(c2ccccc2)(c2cc(Br)c(O)c(Br)c2)c2ccccc21 (stereo not drawn)"
  measure: "GI50"
  observed: "17.5 µM"

Prompt: Lab request: please report GI50 under test system SF-295 CNS for N#CC1=C(N)NC(=S)NC12Nc1ccccc1N2
Response: 33.1 µM

Prompt: Return GI50 measured with SF-295 CNS given this molecule: c1ccc(CN=C(NCc2ccccc2)NCc2ccccc2)cc1
Response: 1.21 µM

Prompt: Request: GI50, test system SF-295 CNS, entry C=C1C(=O)O[C@@H]2C1C[C@@H](O)C(=C)CC/C=C(\C)CCC[C@H](C)[C@H]2OC(C)=O (stereo partly drawn)
Response: 17.1 µM

Prompt: GI50 of Cc1cc(Oc2ccc3nc(COc4ccc(CC5SC(=O)NC5=O)cc4)n(C)c3c2)cc(C)c1N (stereo not drawn) on SF-295 CNS?
Response: 32.5 µM

Prompt: Request body: readout GI50, system SF-295 CNS, query C[C@H]1[C@H]2[C@H]3CC[C@@H]4[C@@]5(C)C/C(=C/c6cccnc6)C(=O)C(C)(C)[C@@H]5CC[C@@]4(C)[C@]3(C)CC[C@]23CO[C@]1(C)[C@@H](C(=O)/C=C\c1cccnc1)C3 . Return the value.
Response: 1.38 µM

Prompt: Request body: readout GI50, system SF-295 CNS, query Cc1cc(O)cc(C)c1/C=C/c1cncc(-c2nn[nH]n2)c1 . Return the value.
Response: > 25 µM
